system: SK-MEL-28 melanoma; assay: NCI-60 one-dose screen, 48 h (100 = growth as untreated, 0 = no growth, -100 = all killed); details: 10 µM
The panel holds about 83,000 compounds, 20% with a hit somewhere; the sample as a whole holds those more often.
Classification field: enter Met for growth values not below 90%, Not met for values below it.

>>> class("O=C1NC(=NC2CCCCCC2)N/C1=C\\c1ccc2ncoc2c1")
"Not met"
>>> class("CC(=O)Nc1nc(-c2ccc(N3CCN(C)CC3)c(NS(=O)(=O)c3cccc4c(N(C)C)cccc34)c2)cs1")
"Not met"
>>> class("O=C(CS(=O)(=O)c1oc(-c2ccc(Cl)cc2)nc1S(=O)(=O)c1ccc(Cl)cc1)N1CCOCC1")
"Not met"
>>> class("O=C(CSc1nnc(-c2c[nH]c3ccccc23)n1-c1ccccc1)Nc1ccc(C(=O)/C=C/c2ccc(Br)cc2)cc1")
"Met"
>>> class("Nc1nc(-c2ccccc2)cc(-c2cc3ccccc3nc2Cl)n1")
"Met"
>>> class("Cc1ccc(-c2nc(Nc3ccc(C)c(S(N)(=O)=O)c3)c3ccccc3n2)cc1")
"Met"
>>> class("COc1ccc2[nH]c(O)c(N=NC(=O)c3cc(-c4ccc(C)cc4)nc4ccccc34)c2c1")
"Met"

---

Quick list: growth per entry.
Test system: HT29 colon
Assay: NCI-60 one-dose screen, 48 h (100 = growth as untreated, 0 = no growth, -100 = all killed)
Settings: 10 µM
Experimental: Growth inhibition of the HT29 human tumor cell line is measured as a screen for anti-cancer activity. Cells are grown in 96 well plates and exposed to the test compound for 48 hours. Compounds are tested at a single concentration, which is 10^-5 M for most compounds. The reported endpoint is percent growth (GI% or GIPRCNT), where numbers from 0 - 100% represent growth inhibition, and numbers from -100% - 0 represent cell death. For example, a value of 40 represents 60% growth inhibition. […]
This is part of a sample that, as a whole, favours compounds with a hit. Of some 83,000 tested, about 20% had one in any assay.
OBSERVABLE: growth (%)

>>> value_measured("CN1C/C(=C\\c2ccc(O)cc2O)c2[o+]c3cc(O)ccc3cc2C1")
44.4
>>> value_measured("COC1=C[C@@]23CCC(=O)N2CCc2cc4c(cc2[C@H]3[C@H]1OC(=O)C(C)(C)O)OCO4")
106
>>> value_measured("COc1cccc(COc2ccc(/C=C3\\Oc4cc(O)ccc4C3=O)cc2)c1")
81.1
>>> value_measured("N#Cc1c(NC(=O)c2ccc(C(F)(F)F)c(Cl)c2)sc2c1CCC(=O)C2")
-25.8
>>> value_measured("O=C(Nc1ccc(Cl)c(C(F)(F)F)c1)c1cncc(C#Cc2cnc3ccc(N4CCOCC4)nn23)c1")
8.82
>>> value_measured("CN(C)c1ccc(/C=C/c2nc3ccccc3c(=O)n2CC(=O)Nc2ccccc2)cc1")
63.6
>>> value_measured("O=c1cc(-c2ccccc2)oc2cc(OCCCCNCc3ccccc3)cc(O)c12")
-55.4
>>> value_measured("OCCCNc1oc(-c2ccccc2)nc1[P+](c1ccccc1)(c1ccccc1)c1ccccc1")
6.51
>>> value_measured("CC(=O)c1cc(C(=O)c2ccc3c(c2)NC(=O)CO3)n2ccc3ccccc3c12")
56.5
>>> value_measured("CN1CCN(c2ccc(Nc3nc(N4CCN(S(=O)(=O)c5ccc(Cl)cc5)CC4)c4sccc4n3)cc2)CC1")
-51.3
>>> value_measured("O=c1oc2ccc(-c3ccc(F)cc3F)cc2c(=O)n1-c1ccc(F)cc1")
59.6
>>> value_measured("CO[C@H]1CSS[C@@H]1Cn1nc(-c2ccc(Oc3ccccc3)cc2)c2c(N)ncnc21")
17.2
>>> value_measured("O=c1[nH]c2ccc(Cl)cc2cc1CSc1ccc(Nc2nccc(-c3ccc4ccccc4c3)n2)cc1")
75.1
>>> value_measured("COc1cc2c3c(n(CCCn4ccnc4)c(=O)c2cc1OC)-c1nc2c(cc1C3=O)OCO2")
31.5
>>> value_measured("N#Cc1c(-c2ccc(F)cc2)nc(SCc2ccc(F)cc2)nc1N1CCOCC1")
92.9
>>> value_measured("Cc1ccc2nc(COc3ccc(C(=O)NNC(=S)NCCc4ccccc4)cc3)[nH]c2c1")
112
>>> value_measured("O=C1Nc2ccc(Cl)cc2/C1=C/c1cccc(OCc2ccccn2)c1")
-63.8
>>> value_measured("COc1ccc(/C=C/C(=O)c2ccc(N3CCN(C)CC3)cc2)c(C(F)(F)F)c1")
-52
>>> value_measured("COc1ccc(-c2nc(Nc3ccccc3S(N)(=O)=O)c3ccccc3n2)cc1")
8.94
>>> value_measured("O=c1cc(-c2ccccc2)oc2cc(OCCCNCc3ccccc3)cc(O)c12")
-59.7
>>> value_measured("COc1cc2c3c(n(CCCNC(C)C)c(=O)c2cc1OC)-c1nc2c(cc1C3=O)OCO2")
-65.4
>>> value_measured("Cc1ccc(/C=C/C(=O)c2ccc(NC(=O)CSc3nnc(-c4c[nH]c5ccccc45)n3-c3ccccc3)cc2)c(C)c1")
65.5
>>> value_measured("O=C(Nc1nc2ccccc2s1)c1ccc(Br)cc1")
87.3
